All figures here come from patent US11230549B2.

target: Human-derived DNA-PK kinase (Homo sapiens, UniProt P78527); construct: Eurofins (contract laboratory that ran the test); test: DNA-PK enzyme activity test (HTRF, phosphorylation of GST-cMyc-p53); format: biochemical
Assignment: determine reported IC50 for the given molecules.
Report the figure in nM without appending any unit label.

Item under review: CN(C)CCCOc1ccc(-c2ccc3ncc4c(c3c2)C2(CCC(F)(F)CC2)C(=O)N4C)cn1 [Example 7] . Reported IC50? 153

Item under review: CN1C(=O)C2(CCOCC2)c2c1cnc1ccc(-c3ccc(OCCCN4CCC(F)CC4)nc3)cc21 [Example 5] . Reported IC50? 92

Item under review: CN1C(=O)C2(CCN(C3CC3)CC2)c2c1cnc1ccc(-c3ccc(OCCCN4CCCCC4)nc3)cc21 [Example 23] . Reported IC50? 30

Item under review: CC(C)N1CCC2(CC1)C(=O)N(C)c1cnc3ccc(-c4ccc(OCCCN5CCCCC5)nc4)cc3c12 [Example 16] . Reported IC50? 204

Item under review: CN(C)CCCOc1ccc(-c2ccc3ncc4c(c3c2)C2(CCOCC2)C(=O)N4C2CC2)cn1 [Example 29] . Reported IC50? 269

====

biological target: Human-derived ATM kinase (Homo sapiens); construct: Eurofins (contract laboratory that ran the test); experiment: ATM enzyme activity test (HTRF, phosphorylation of GST-cMyc-p53); assay type: biochemical
Sequence (Q13315 whole entry): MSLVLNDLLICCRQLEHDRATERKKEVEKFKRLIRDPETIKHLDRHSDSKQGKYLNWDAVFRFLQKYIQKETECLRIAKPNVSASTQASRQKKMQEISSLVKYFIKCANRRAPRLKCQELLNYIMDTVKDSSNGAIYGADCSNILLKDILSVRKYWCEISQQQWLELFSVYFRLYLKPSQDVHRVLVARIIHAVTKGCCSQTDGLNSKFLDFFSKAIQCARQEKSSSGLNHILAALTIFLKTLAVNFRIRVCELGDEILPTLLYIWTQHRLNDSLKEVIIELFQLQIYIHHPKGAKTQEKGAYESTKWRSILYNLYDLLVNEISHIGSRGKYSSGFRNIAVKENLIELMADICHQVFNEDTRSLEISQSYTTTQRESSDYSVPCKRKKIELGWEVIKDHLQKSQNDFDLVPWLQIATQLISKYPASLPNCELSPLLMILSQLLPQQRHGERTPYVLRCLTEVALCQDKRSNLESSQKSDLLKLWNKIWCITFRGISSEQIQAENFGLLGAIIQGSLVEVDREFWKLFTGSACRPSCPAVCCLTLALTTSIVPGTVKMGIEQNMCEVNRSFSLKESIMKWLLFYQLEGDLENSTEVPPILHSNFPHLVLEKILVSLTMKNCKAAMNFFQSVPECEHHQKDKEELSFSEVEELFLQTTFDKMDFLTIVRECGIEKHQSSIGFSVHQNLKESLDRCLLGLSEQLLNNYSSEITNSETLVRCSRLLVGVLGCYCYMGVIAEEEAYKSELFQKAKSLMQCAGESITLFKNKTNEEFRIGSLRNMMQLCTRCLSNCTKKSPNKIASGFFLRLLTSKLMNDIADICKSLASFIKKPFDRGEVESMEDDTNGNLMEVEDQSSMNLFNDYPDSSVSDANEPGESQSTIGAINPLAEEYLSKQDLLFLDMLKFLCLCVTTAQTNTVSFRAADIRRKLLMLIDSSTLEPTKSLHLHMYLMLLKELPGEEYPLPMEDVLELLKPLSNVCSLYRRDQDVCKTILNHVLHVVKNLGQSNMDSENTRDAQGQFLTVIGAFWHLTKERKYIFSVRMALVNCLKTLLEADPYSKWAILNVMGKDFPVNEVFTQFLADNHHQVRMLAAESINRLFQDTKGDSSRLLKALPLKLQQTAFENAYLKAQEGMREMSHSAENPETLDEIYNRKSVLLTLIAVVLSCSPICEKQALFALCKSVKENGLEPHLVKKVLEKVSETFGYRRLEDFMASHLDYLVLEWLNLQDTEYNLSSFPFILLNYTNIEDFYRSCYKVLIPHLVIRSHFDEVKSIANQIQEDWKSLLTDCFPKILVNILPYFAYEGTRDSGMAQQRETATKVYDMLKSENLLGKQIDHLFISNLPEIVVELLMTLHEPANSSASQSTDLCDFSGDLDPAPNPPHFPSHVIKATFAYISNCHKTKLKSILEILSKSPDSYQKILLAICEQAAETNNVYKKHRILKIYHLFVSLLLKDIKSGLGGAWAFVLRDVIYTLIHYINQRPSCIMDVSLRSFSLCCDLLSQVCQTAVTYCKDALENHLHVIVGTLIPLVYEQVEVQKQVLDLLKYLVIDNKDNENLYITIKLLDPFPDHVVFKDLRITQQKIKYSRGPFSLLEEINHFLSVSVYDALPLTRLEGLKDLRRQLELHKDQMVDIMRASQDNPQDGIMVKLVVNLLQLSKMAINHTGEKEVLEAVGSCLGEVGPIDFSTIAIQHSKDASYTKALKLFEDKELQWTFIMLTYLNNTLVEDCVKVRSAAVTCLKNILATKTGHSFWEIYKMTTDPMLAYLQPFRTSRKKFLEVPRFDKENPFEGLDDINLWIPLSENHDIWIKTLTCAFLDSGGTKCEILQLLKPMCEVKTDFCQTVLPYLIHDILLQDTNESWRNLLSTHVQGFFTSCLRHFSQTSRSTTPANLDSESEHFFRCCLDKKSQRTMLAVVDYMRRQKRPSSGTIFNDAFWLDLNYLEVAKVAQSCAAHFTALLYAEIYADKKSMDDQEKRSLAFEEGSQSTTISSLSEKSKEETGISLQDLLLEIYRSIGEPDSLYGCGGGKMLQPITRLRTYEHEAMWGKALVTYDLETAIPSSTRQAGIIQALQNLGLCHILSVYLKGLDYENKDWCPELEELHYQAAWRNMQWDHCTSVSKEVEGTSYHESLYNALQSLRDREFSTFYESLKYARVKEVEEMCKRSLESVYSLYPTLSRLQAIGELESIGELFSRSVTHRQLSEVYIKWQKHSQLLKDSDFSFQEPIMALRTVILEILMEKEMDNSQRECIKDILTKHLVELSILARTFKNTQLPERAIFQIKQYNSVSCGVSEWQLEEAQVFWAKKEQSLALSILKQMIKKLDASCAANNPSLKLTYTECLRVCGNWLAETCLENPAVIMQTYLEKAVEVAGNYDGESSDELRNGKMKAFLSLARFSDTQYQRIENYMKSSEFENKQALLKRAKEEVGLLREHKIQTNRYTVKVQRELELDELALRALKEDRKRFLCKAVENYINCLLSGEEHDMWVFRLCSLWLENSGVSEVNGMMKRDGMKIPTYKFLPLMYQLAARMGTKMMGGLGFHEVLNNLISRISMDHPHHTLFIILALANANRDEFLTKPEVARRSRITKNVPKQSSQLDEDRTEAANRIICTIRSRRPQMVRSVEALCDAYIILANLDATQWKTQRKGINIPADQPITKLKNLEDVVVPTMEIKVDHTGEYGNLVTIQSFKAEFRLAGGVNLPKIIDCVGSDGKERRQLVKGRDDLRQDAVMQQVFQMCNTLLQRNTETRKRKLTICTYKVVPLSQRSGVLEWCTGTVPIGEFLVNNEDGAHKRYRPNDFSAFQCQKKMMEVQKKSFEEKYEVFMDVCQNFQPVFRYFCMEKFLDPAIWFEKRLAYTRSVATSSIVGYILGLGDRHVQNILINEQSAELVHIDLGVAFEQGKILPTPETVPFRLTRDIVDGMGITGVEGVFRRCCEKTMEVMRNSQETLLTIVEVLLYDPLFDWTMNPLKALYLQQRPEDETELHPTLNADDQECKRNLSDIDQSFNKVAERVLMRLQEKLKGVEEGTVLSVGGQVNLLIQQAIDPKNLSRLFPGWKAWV
Mark t only when IC50 stays strictly below 2 nM. Values equal to the cut-off are f.

Regarding O=C1N(C2CC2)c2cnc3cc(F)c(-c4ccc(OCCCN5CCCCC5)nc4)cc3c2C12CCOCC2 , kindly confirm whether its IC50 is beneath 2 nM. f

Regarding CN1C(=O)C2(CCOCC2)c2c1cnc1ccc(-c3cnn(C)c3)cc21 , kindly confirm whether its IC50 is beneath 2 nM. f

Regarding CN(C)CCCOc1ccc(-c2ccc3ncc4c(c3c2)C2(CCN(C)CC2)C(=O)N4C)cn1 , kindly confirm whether its IC50 is beneath 2 nM. t

Regarding CN(C)CCCOc1ccc(-c2ccc3ncc4c(c3c2)C2(CCN(C3CC3)CC2)C(=O)N4C)cn1 , kindly confirm whether its IC50 is beneath 2 nM. t

Regarding COC1CCC2(CC1)C(=O)N(C)c1cnc3ccc(-c4ccc(OCCCN(C)C)nc4)cc3c12 (stereo not drawn) , kindly confirm whether its IC50 is beneath 2 nM. t

Regarding COCc1ccc(-c2ccc3ncc4c(c3c2)C2(CCOCC2)C(=O)N4C)cn1 , kindly confirm whether its IC50 is beneath 2 nM. f

Regarding CN1C(=O)C2(CCN(CC(F)(F)F)CC2)c2c1cnc1ccc(-c3ccc(OCCCN4CCCCC4)nc3)cc21 , kindly confirm whether its IC50 is beneath 2 nM. f

====

molecular target: Human-derived ATM kinase (Homo sapiens); construct: Eurofins (contract laboratory that ran the test); assay: ATM enzyme activity test (HTRF, phosphorylation of GST-cMyc-p53); format: biochemical
assayMetric: IC50 (nM)
Report the figure in nM without appending any unit label.

// fetch Human-derived ATM kinase (Homo sapiens) IC50 for CCN1CCC2(CC1)C(=O)N(C)c1cnc3ccc(-c4ccc(OCCCN(C)C)nc4)cc3c12 [Example 10] 2

// fetch Human-derived ATM kinase (Homo sapiens) IC50 for CN(C)CCCOc1ccc(-c2cc3c4c(cnc3cc2F)N(C)C(=O)C42CCOCC2)cn1 [Example 33] 1

// fetch Human-derived ATM kinase (Homo sapiens) IC50 for CN(C)CCCOc1ccc(-c2ccc3ncc4c(c3c2)C2(CCC(C)(O)CC2)C(=O)N4C)cn1 (stereo not shown) [Example 27] 1

// fetch Human-derived ATM kinase (Homo sapiens) IC50 for CC(C)N1CCC2(CC1)C(=O)N(C)c1cnc3ccc(-c4ccc(OCCCN5CCCCC5)nc4)cc3c12 [Example 16] 4

// fetch Human-derived ATM kinase (Homo sapiens) IC50 for CN(C)CCCOc1ccc(-c2ccc3ncc4c(c3c2)C2(CCC(F)(F)CC2)C(=O)N4C)cn1 [Example 7] 1

// fetch Human-derived ATM kinase (Homo sapiens) IC50 for CN(C)CCCOc1ccc(-c2cc3c4c(cnc3cc2Cl)N(C)C(=O)C42CCOCC2)cn1 [Example 36] 12

// fetch Human-derived ATM kinase (Homo sapiens) IC50 for CN1C(=O)C2(CCOCC2)c2c1cnc1cc(F)c(-c3ccc(OCCCN4CCCCC4)nc3)cc21 [Example 32] 2

// fetch Human-derived ATM kinase (Homo sapiens) IC50 for CN(C)CCCOc1ccc(-c2ccc3ncc4c(c3c2)C2(CCN(C(=O)C3CC3)CC2)C(=O)N4C)cn1 [Example 18] 2

// fetch Human-derived ATM kinase (Homo sapiens) IC50 for CN(C)CCCOc1ccc(-c2cc3c4c(cnc3cc2F)N(C2CC2)C(=O)C42CCOCC2)cn1 [Example 34] 5

// fetch Human-derived ATM kinase (Homo sapiens) IC50 for CN(C)CCCOc1ccc(-c2ccc3ncc4c(c3c2)C2(CCC(O)CC2)C(=O)N4C)cn1 (stereo not shown) [Example 26] 1

// fetch Human-derived ATM kinase (Homo sapiens) IC50 for CC(C)OC(=O)N1CCC2(CC1)C(=O)N(C)c1cnc3ccc(-c4ccc(OCCCN(C)C)nc4)cc3c12 [Example 21] 7

// fetch Human-derived ATM kinase (Homo sapiens) IC50 for CN1C(=O)C2(CCOCC2)c2c1cnc1ccc(-c3ccc(OCCCN4CCCCC4)nc3)cc21 [Example 24] 2

// fetch Human-derived ATM kinase (Homo sapiens) IC50 for CCN1CCC2(CC1)C(=O)N(C)c1cnc3ccc(-c4ccc(OCCCN5CCCCC5)nc4)cc3c12 [Example 11] 2

// fetch Human-derived ATM kinase (Homo sapiens) IC50 for COC(=O)N1CCC2(CC1)C(=O)N(C)c1cnc3ccc(-c4ccc(OCCCN(C)C)nc4)cc3c12 [Example 19] 0.8

// fetch Human-derived ATM kinase (Homo sapiens) IC50 for CN1C(=O)C2(CCN(C3CC3)CC2)c2c1cnc1ccc(-c3ccc(OCCCN4CCCCC4)nc3)cc21 [Example 23] 0.8

// fetch Human-derived ATM kinase (Homo sapiens) IC50 for CN1C(=O)C2(CCOCC2)c2c1cnc1ccc(-c3ccc(OCCCN4CC[C@@H](F)C4)nc3)cc21 [Example 4] 1
